Kd reference
- Study target: SARS-2 RBM^hg RBD construct (SARS-2 RBD with engineered glycans at 448, 475, 494 and 501) (SARS-CoV-2 (engineered), UniProt P0DTC2 319-529)
- Assay remarks: BLI with recombinant Fabs, drawn table of KD (µM)

# Binder, Kd
measured = [
    ("Ab19 Fab (Fab, V domains shown) VH: QVQLQQSGAELARPGASVKLSCKASGYPFTSYGINWVKQRTGQGLEWIGEIYPRIGNTYYNEKFKGKATLTADKSSSTAYMEFRSLTSEDSAVYFCARSWNSNYGEYYFDYWGQGTTLTVS VL: DIVMTQSHKFMSTSIGDRVSITCKASHDVSTAVAWYQQKPGQSPKLLIYWASTRHTGVPDRFTGSGSGTDYTLTIRSVQAEDLALYYCQQHYSTPYTFGGGTKLEIK", "> 100000 nM"),
    ("Ab16 Fab (Fab, V domains shown) VH: EVQLQQSGPELVKPGASVKISCKASGYSFNNYYMNWVKQSPEKSLEWIGEINPNSGYTSYNQKFRAKATLTVDKSSTTAYMQLKSLTSEDSAVYYCARYFGNLFAMDFWGQGTSVTVS VL: DILMTQSPSSMSVSLGDTVSITCHASQGIGSNIGWLQQKPGKSFKGLIYLGTNLEDGVPSRFSGSGSGADYSLTISSLESEDFADYYCVQYVQFPYTFGGGTKLEIK", "160 nM"),
    ("Ab15 Fab (Fab, V domains shown) VH: EVQLQQSGPELVKPGASVKISCKASGYSFTGYYMNWVKQSPEKSLEWIGEINPNFGGTTYNQKFKAKATLTVDKSSSTAYMQLKSLTSEDSAVYYCARYYGNLYAMDYWGQGTSVTVS VL: DILMTQSPSSMSVSLGDTVSITCHASQGISSNIGWLQQKPGKSFKGLIYHGTNLEDGVPSRFSGSGSGAAYSLTISSLESEDFADYYCVQYTHFPYTFGGGTKLEIK", "1300 nM"),
    ("Ab20 Fab (Fab, V domains shown) VH: EVQLQQSGPELVKPGASVKISCKASGFSFTGYSMNWMKQSPEKSLEWIGEINPTTGGTTYNQKFKAKATLTVDKSSSTAYIQLKSLTSEDSAVYYCARGRADYWGQGTTLTVSS VL: DIVLTQSPASLAVSLGQRATISCRASESVEYYGTGLVQWFQQKPGQPPKLLIYAASNVESGVPARFSGSGSGTDFSLNIHSVEEDDIAMYFCHQSRKLPWTFGGGTKLEIK", "> 100000 nM"),
]
